- System: RXF 393 renal
- assay: NCI-60 one-dose screen, 48 h
- measurement_conditions: 10 µM unless noted
This is part of a sample that, as a whole, favours compounds with a hit. Of some 83,000 tested, about 20% had one in any assay. Calls of active or inactive are those of the source. Rule for the calls: active = growth percent below 10; inactive = the rest.
Labels: active, inactive

{"columns": ["test_smiles", "assayed_system", "label_class"],
 "data": [
  ["Cc1ccc(-c2ccc(Nc3ccccc3)nn2)cc1S(N)(=O)=O", "RXF 393 renal", "inactive"],
  ["CN1CCN(c2nc(-c3cccc4ccccc34)nc3sc4c(c23)CCCCCC4)CC1", "RXF 393 renal", "inactive"],
  ["S=c1[nH]nc2ccccn12", "RXF 393 renal", "inactive"],
  ["O=C1c2cc3c(cc2-c2c1c1ccc(Cl)cc1c(=O)n2C[C@H](O)[C@@H](O)[C@H](O)CO)OCO3", "RXF 393 renal", "active"],
  ["Cn1c2c(Cl)c(Cl)ccc2c2c(C#N)c[nH]c(=O)c21", "RXF 393 renal", "inactive"],
  ["Cn1cc(-c2nc(-c3c[nH]c4ncccc34)cs2)c2cc(F)ccc21", "RXF 393 renal", "inactive"],
  ["Cc1ccnc2c(OCc3ccccc3)cccc12", "RXF 393 renal", "inactive"],
  ["Brc1ccc2[nH]cc(-c3nc(-c4c[nH]c5ncccc45)cs3)c2c1", "RXF 393 renal", "inactive"],
  ["COC(=O)[C@]12CC[C@@H](C)[C@H](C)[C@@H]1C1=CC[C@@H]3[C@@]4(C)C(c5ncon5)=C[C@@](C)(CO)C4=CC[C@@]3(C)[C@]1(C)CC2", "RXF 393 renal", "active"],
  ["CN1CCN(c2ccc3nc(-c4[nH]ncc4Nc4ncnc5c4OCCCN5)[nH]c3c2)CC1", "RXF 393 renal", "active"]
]}

====

- Test system: HOP-92 NSCLC
- assay: NCI-60 one-dose screen, 48 h (100 = growth as untreated, 0 = no growth, -100 = all killed)
- measurement_conditions: 10 µM unless noted
This is part of a sample that, as a whole, favours compounds with a hit. Of some 83,000 tested, about 20% had one in any assay.
Lab note: compare growth against 70%. Equal or greater, write Y. Smaller, write N.

{"columns": ["test_smiles", "label_class"],
 "data": [
  ["CC1(C)CC[C@]2(C(=O)NCCNCCN)CC[C@]3(C)C(=CC[C@@H]4[C@@]5(C)CCC(=O)C(C)(C)[C@@H]5CC[C@]43C)[C@@H]2C1", "N"],
  ["COc1ccc(/C=C/C(=O)NCCO)cc1", "Y"],
  ["C=C(C)[C@@H]1CC[C@]2(C)CC[C@]3(C)[C@H](CC[C@@H]4[C@@]5(C)CCCNC(C)(C)[C@@H]5CC[C@]43C)[C@@H]12", "Y"],
  ["O=[N+]([O-])c1cc(S(=O)(=O)c2ccc(F)c([N+](=O)[O-])c2)ccc1F", "Y"],
  ["CCc1nnc(NC(=O)c2ccoc2COc2ccccc2)s1", "Y"],
  ["COc1ccc2[nH]cc(-c3nc(-c4c[nH]c5ncccc45)cs3)c2c1", "N"],
  ["Cc1ccc(Sc2sc(-c3ccccc3)nc2[P+](c2ccccc2)(c2ccccc2)c2ccccc2)cc1", "N"]
]}
